# System: HCC-2998 colon
# assay_comment: NCI-60 one-dose screen, 48 h (100 = growth as untreated, 0 = no growth, -100 = all killed)
# condition: 10 µM unless noted
# Description: Growth inhibition of the HCC-2998 human tumor cell line is measured as a screen for anti-cancer activity. Cells are grown in 96 well plates and exposed to the test compound for 48 hours. Compounds are tested at a single concentration, which is 10^-5 M for most compounds. The reported endpoint is percent growth (GI% or GIPRCNT), where numbers from 0 - 100% represent growth inhibition, and numbers from -100% - 0 represent cell death. For example, a value of 40 represents 60% growth inhibition. […]
About 83,000 compounds went through this panel and 20% of them were active in at least one assay; those are over-represented in the sample as a whole.
measurement_label: growth (%)
Respond numerically; units are % and should not be typed.

Field: example entries. Status: answers known.
[[record]]
compound = "Cc1cc(C)c(C#N)c(Sc2nc(C)c([N+](=O)[O-])c(C)c2C#N)n1"
measurement_label = "growth"
value_measured = 100

[[record]]
compound = "CCOc1ccc2c(c1)/C(=C\\C=C\\C1CC(C)C3CC(OCC)CCC3N1CC)CC(C)N2CC (stereo not given)"
measurement_label = "growth"
value_measured = 28.5

[[record]]
compound = "O=C1C(=O)c2cc([N+](=O)[O-])ccc2-c2ccccc21"
measurement_label = "growth"
value_measured = 65.9


Fill in the blank: the reported growth of CN1CCC(c2ccccc2)(c2ccccc2)C(=O)C1 is ____.
82.1

Also CC(O)C(O)C(O)C(O)C(O)C(=O)NNc1ccccc1 (stereo not given) ?
95.1

Record: O=C1C=Cc2ccccc2/C1=C/c1nc(-c2ccccc2)oc1O
129

Next compound up: C/C(=N\NC(=S)N1CC2CCC(CC2)C1)c1ccccn1
29.3

Now the same for O=[N+]([O-])/C(=C/c1ccccc1)c1ccccc1
94.1

Queued: COC1CC(C)C(OC)c2cc(O)cc(c2O)NC(=O)/C(C)=C/C=C\C(C)C(OC(N)=O)/C(C)=C\C(C)C1OC (stereo not given)
-11.6

Then this compound: COC(=O)C(=[N+]=[N-])C(=O)c1ccc([N+](=O)[O-])o1
107

###

# Tested on: HOP-62 NSCLC
# assay_comment: NCI-60 one-dose screen, 48 h (100 = growth as untreated, 0 = no growth, -100 = all killed)
# condition: 10 µM unless noted
About 83,000 compounds went through this panel and 20% of them were active in at least one assay; those are over-represented in the sample as a whole.
Recorded growth values for a group of compounds are listed next.
Please reply with the bare figure in % and do not write the unit itself.

[[record]]
compound = "N#C/C(=N\\Nc1ccc(Cl)cc1)C(=O)C1CC1"
value_measured = 41.9

[[record]]
compound = "CC(C)Nc1ccc(Nc2ccc(NC(C)C)cc2)cc1"
value_measured = 76.4


So what's the measured growth for this one? NNc1ccc(Cl)cc1Cl
64.9

Input Oc1ccccc1N=Cc1ccccc1
99.1

And then CC(C)(C)c1ccc(O)c(-c2ccccc2)c1 , what is it?
112

###

# Tested on: A549/ATCC NSCLC
# assay_comment: NCI-60 one-dose screen, 48 h (100 = growth as untreated, 0 = no growth, -100 = all killed)
# condition: 10 µM unless noted
Compounds without any hit were thinned out: in the full panel of roughly 83,000, 20% have a hit.
measurement_label: growth (%)
Report the value in % with no unit label.

# example entries with known answers
[[record]]
molecule = "CCCCCCCCCCCC[N+]1(CCCCCCCCCCCC)CCCC(C)C1 (configuration not stated)"
value_measured = -98.6

[[record]]
molecule = "CC(C)(C)CC(C)(C)c1ccc(OCCOCCSC(=N)N)cc1"
value_measured = 68.8

[[record]]
molecule = "CC(C)=CCCC(C)C1=C(O)C(=O)C(C)=CC1=O (configuration not stated)"
value_measured = 110


Lab note: need growth for Nc1cccc2cccc([N+](=O)[O-])c12 on A549/ATCC NSCLC, anyone have it?
106

Do the same for NC(=S)N/N=C/c1ncccc1O please
28

Try Nc1ccc(-c2ccc(N)c(S(=O)(=O)O)c2)cc1S(=O)(=O)O next.
117

Next record, please: CCCc1cc(=O)oc2c3c(c4c(c12)OC(C)(C)CC4)OC(C)[C@H](C)[C@@H]3O (some centres not stated)
72

Entry to check: CC(=O)c1c(O)c(C)c(O)c2c1OC1=CC(=O)C(C(C)=O)C(=O)C12C (configuration not stated)
96

Then what about the molecule Cc1cc(Br)c2nsnc2c1[N+](=O)[O-] ?
54.4

###

# Test system: MDA-MB-435 melanoma
# assay_comment: NCI-60 one-dose screen, 48 h
# condition: 10 µM unless noted
Compounds without any hit were thinned out: in the full panel of roughly 83,000, 20% have a hit. Active and inactive are the calls of the source. How the source made its calls: active means growth percent below 10; inactive means the rest.
Bench note: report the call from active, inactive

Fill in: this test's call for COc1cc([C@@H]2c3cc4c(cc3[C@H](OC3OC5COC(c6ccccc6)OC5C(O)C3O)[C@H]3COC(=O)[C@H]23)OCO4)cc(OC)c1OC (stereo not given in full) is ___
inactive

Same again, this time with Cc1c(O)ccc(SC#N)c1C
inactive

Query CN(C)CCN(C)CC(C)(C)C(=O)/C=C/c1ccc(Cl)c(Cl)c1 next
active

Can you check C1=C(c2ccccc2)c2ccccc2C1 next?
inactive

Also need NC(=S)N/N=C/c1ncccc1O , thanks.
inactive

Item: CCCCCCCCCCCC1=NCCCN1CCCC
inactive

Cool, now CC(C)N=C(N)/N=C(\N)Nc1ccc2ccc3ccccc3c2c1
active

One more molecule: NC(=S)N/N=C\c1nccc2c(N)cccc12
inactive

Cc1cc(=O)oc2cc(O)cc(O)c12 , same question.
inactive

Query CCN(CC)c1ccc(/C=C\C(=O)c2ccc(NC(C)=O)cc2)cc1 next
inactive

Request: O=C(NNc1ccccc1)OCc1ccccc1
inactive

###

# System: MDA-MB-435 melanoma
# assay_comment: NCI-60 one-dose screen, 48 h (100 = growth as untreated, 0 = no growth, -100 = all killed)
# condition: 10 µM unless noted
# Procedure: Growth inhibition of the MDA-MB-435 human Melanoma tumor cell line is measured as a screen for anti-cancer activity. Cells are grown in 96 well plates and exposed to the test compound for 48 hours. Compounds are tested at a single concentration, which is 10^-5 M for most compounds. The reported endpoint is percent growth (GI% or GIPRCNT), where numbers from 0 - 100% represent growth inhibition, and numbers from -100% - 0 represent cell death. […]
This is part of a sample that, as a whole, favours compounds with a hit. Of some 83,000 tested, about 20% had one in any assay.
measurement_label: growth (%)
All answers are understood in %, so give the number only.

Known growth results, listed for orientation:
[[record]]
compound = "N#CCc1cccc2ccccc12"
value_measured = 119

[[record]]
compound = "C/C(=N/NC(N)=S)c1ccc(C)cc1"
value_measured = 96.1


Moving on to the next compound.
Lab note: need growth for CC(=O)c1ccc2c(c1)CCc1ccccc1-2 on MDA-MB-435 melanoma, anyone have it?
100

###

# System: SF-268 CNS
# assay_comment: NCI-60 one-dose screen, 48 h (100 = growth as untreated, 0 = no growth, -100 = all killed)
# condition: 10 µM unless noted
The panel holds about 83,000 compounds, 20% with a hit somewhere; the sample as a whole holds those more often. The source made the active and inactive calls. Rule for the calls: active = growth percent below 10; inactive = the rest.
measurement_label: growth

Identify the measured growth of COC(=O)[C@]1(C)CCC[C@]2(C)c3ccc(C(C)C)cc3C(=O)[C@@H](Br)[C@@H]12 for SF-268 CNS.
102% (inactive)

And then c1ccc2sc(SSN3CC4CCC(CC4)C3)nc2c1 , what is it?
122% (inactive)

Subsequent entry: N#CC1c2ccccc2C=CN1C(=O)CCCl (configuration not stated)
104% (inactive)

Moving on to CN(C)c1ccc(/C=C/c2ccnc3ccccc23)cc1
70% (inactive)

Next entry: O=C1C=CC(=O)N1c1cc(Cl)c(Cl)cc1Cl
102% (inactive)

Same read-out for CCCCCCCCCCCCN1C(C)=CS/C1=C\C=C\c1scc(C)[n+]1CCCCCCCCCCCC ?
40.3% (inactive)

###

# Tested on: MCF7 breast
# assay_comment: NCI-60 one-dose screen, 48 h
# condition: 10 µM unless noted
Compounds without any hit were thinned out: in the full panel of roughly 83,000, 20% have a hit. The source made the active and inactive calls. Rule for the calls: active = growth percent below 10; inactive = the rest. Where a SMILES comes first, the peptide text is derived from it. [ ]: non-standard residue; d: D form. ξ: configuration not given here. ξD = NC(CC(=O)O)C(=O)O
Valid outcomes are listed here; reply with one: true = active, false = inactive

Use the examples below as a reference point.
[[record]]
molecule = "CN(C)CC(C)(CN(C)C)C(=O)/C=C/c1c(Cl)cccc1Cl"
answer_label = "true"

[[record]]
molecule = "NNc1cccc([N+](=O)[O-])c1"
answer_label = "false"

[[record]]
molecule = "Cc1cc(Br)c2nsnc2c1[N+](=O)[O-]"
answer_label = "false"

[[record]]
molecule = "CCOc1ccc(C(CN2CCOCC2)C(C)=O)cc1OC (stereo not drawn)"
answer_label = "false"


Answer briefly: the call reported for O=C(O)c1cc2c(s1)C(=O)c1sccc1C2=O in this assay.
true

Check NCC(=O)NC(CC(=O)O)C(=O)O (stereo not drawn) (H-Gly-[ξD]-OH) too.
false

Try this molecule too: Cc1nc([N+](=O)[O-])c(Sc2nncc(-c3ccccc3)n2)n1C
false

Subsequent entry: N#CC(=C1SCS1)[N+](=O)[O-]
false

Same question for Oc1cc(Cl)ccc1Cc1ccc(Cl)cc1O please.
false
